Test system: 898857-211-R-J1-PDC complex spheroids, growth % test/control
Method description: Anticancer human tumor 898857-211-R-J1-PDC patient-derived melanoma cell line growth inhibition [RAS]
Settings: second compound 0.0316 µM; first compound 3.16 µM; active compounds read low
Readout type: viability, T/C (%)
The answer is to be given in %; state only the numeric part.

Example results:
{"columns": ["Molecule", "Assay target", "Measurement units", "viability, T/C"],
 "data": [
  ["CC(C)NCC(C(=O)N1CCN(c2ncnc3c2C(C)CC3O)CC1)c1ccc(Cl)cc1 (stereo unspecified) + C=CC(=O)N1CCN(c2nc(OCC3CCCN3C)nc3c(F)c(-c4nc(N)cc(C)c4C(F)(F)F)c(Cl)cc23)C(C)C1", "898857-211-R-J1-PDC complex spheroids, growth % test/control", "%", 78.9],
  ["CC(C)NCC(C(=O)N1CCN(c2ncnc3c2C(C)CC3O)CC1)c1ccc(Cl)cc1 (stereo unspecified) + C#Cc1c(F)ccc2cc(O)cc(-c3ncc4c(N5CC6CCC(C5)N6)nc(OCC56CCCN5CC(F)C6)nc4c3F)c12", "898857-211-R-J1-PDC complex spheroids, growth % test/control", "%", 73.6],
  ["CCC(CC)c1cc(NC2CCC(N)C2)n2nccc2n1 (stereo unspecified) + C=CC(=O)N1CCN(c2nc(OCC3CCCN3C)nc3c(F)c(-c4nc(N)cc(C)c4C(F)(F)F)c(Cl)cc23)C(C)C1", "898857-211-R-J1-PDC complex spheroids, growth % test/control", "%", 1.12],
  ["CC(=O)OC12COC1CC(O)C1(C)C(=O)C(O)C3=C(C)C(OC(=O)C(O)C(NC(=O)OC(C)(C)C)c4ccccc4)CC(O)(C(OC(=O)c4ccccc4)C21)C3(C)C (stereo unspecified) + C=CC(=O)N1CCN(c2nc(OCC3CCCN3C)nc3c(F)c(-c4nc(N)cc(C)c4C(F)(F)F)c(Cl)cc23)C(C)C1", "898857-211-R-J1-PDC complex spheroids, growth % test/control", "%", 24.2],
  ["CC(Nc1ccc2c(c1)OCCn1cc(N3C(=O)OCC3C(F)F)nc1-2)C(N)=O (stereo unspecified) + C=CC(=O)N1CCN(c2nc(OCC3CCCN3C)nc3c(F)c(-c4nc(N)cc(C)c4C(F)(F)F)c(Cl)cc23)C(C)C1", "898857-211-R-J1-PDC complex spheroids, growth % test/control", "%", 81.8]
]}

Query CC1(O)CCCC1n1c(=O)c(C(F)F)cc2cnc(NC3CCN(S(C)(=O)=O)CC3)nc21 (stereo unspecified) + C#Cc1c(F)ccc2cc(O)cc(-c3ncc4c(N5CC6CCC(C5)N6)nc(OCC56CCCN5CC(F)C6)nc4c3F)c12 yields viability, T/C of 43.1

----------
System: 898857-211-R-J1-PDC complex spheroids, growth % test/control
Method description: Anticancer human tumor 898857-211-R-J1-PDC cell line growth inhibition [RAS];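 note: spheroids exposed to compound for seven days before readout; 100% = DMSO vehicle control wells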
Settings: second compound 0.3 µM; first compound 0.0316 µM; active compounds read low
Readout type: viability, T/C (%)
Give the value, in units of %, as a plain number.

Look over these answered cases.
{"columns": ["Compound", "Observed result"],
 "data": [
  ["Nc1ccn(C2OC(CO)C(O)C2(F)F)c(=O)n1 (stereo not given) + CCn1c(-c2cccnc2C(C)OC)c2c3cc(ccc31)N1CCOC(CC(NC(=O)C(C(C)C)N(C)C(=O)C3(F)CCN(C(=O)C#CC(C)(C)N(C)C)CC3)C(=O)N3CCCC(N3)C(=O)OCC(C)(C)C2)C1", 3.88],
  ["NC1c2ccccc2OC12CCN(c1cnc3c(N4CCCc5ncccc54)n[nH]c3n1)CC2 (stereo not given) + CCn1c(-c2cccnc2C(C)OC)c2c3cc(ccc31)N1CCOC(CC(NC(=O)C(C(C)C)N(C)C(=O)C3(F)CCN(C(=O)C#CC(C)(C)N(C)C)CC3)C(=O)N3CCCC(N3)C(=O)OCC(C)(C)C2)C1", 73.3],
  ["Nc1ccn(C2OC(CO)C(O)C2(F)F)c(=O)n1 (stereo not given) + CCn1c(-c2cc(N3CCN(C)CC3)cnc2C(C)OC)c2c3cc(ccc31)-c1csc(n1)CC(NC(=O)C1CC1C)C(=O)N1CCCC(N1)C(=O)OCC(C)(C)C2", 5.64],
  ["C[C@@H](NC(=O)c1ncnc(N)c1Cl)c1ncc(C(=O)Nc2cc(C(F)(F)F)c(Cl)cn2)s1 + CCn1c(-c2cccnc2C(C)OC)c2c3cc(ccc31)N1CCOC(CC(NC(=O)C(C(C)C)N(C)C(=O)C3(F)CCN(C(=O)C#CC(C)(C)N(C)C)CC3)C(=O)N3CCCC(N3)C(=O)OCC(C)(C)C2)C1", 82.9]
]}

Let us move to another entry and its viability, T/C.
The value of viability, T/C measured for the compound CC(C)NCC(C(=O)N1CCN(c2ncnc3c2C(C)CC3O)CC1)c1ccc(Cl)cc1 (stereo not given) + CCn1c(-c2cccnc2C(C)OC)c2c3cc(ccc31)N1CCOC(CC(NC(=O)C(C(C)C)N(C)C(=O)C3(F)CCN(C(=O)C#CC(C)(C)N(C)C)CC3)C(=O)N3CCCC(N3)C(=O)OCC(C)(C)C2)C1 turned out to be 75
